Where do the numbers come from? From patent US20220340646A1.

Listed here are binders together with their documented Kd.
# TESTED_SYSTEM: pSer413(Im) peptide (human)
# Sequence (peptide, as listed by the source): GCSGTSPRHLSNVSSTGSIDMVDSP
# PROTOCOL_TEXT: SPR (Biacore 3000), antibody captured by anti-mouse antibody, peptide as analyte, single cycle kinetics
Non-standard residues stand in square brackets, D forms with d. No end group written: not given here. pS = N[C@@H](COP(=O)(O)O)C(=O)O
Just the number please, in nM, no unit attached.

Please review the following examples before continuing.
Ta1506 (antibody, V domains shown, also called Ta15 Series) VH: EVHLVESGGGLVQPKGSLKLSCAASGFAFNSFAMNWVRQAPGKALDWIAHIRSKTNNYVTFYADSVKGRFSISRDDSQSMVYLQMNNLQTEDTGIYYCVRRGPRDSWFGYWGQGTLVTVSA VL: GVLMTQIPLSLPVSLGDQASISCRSSQNIVHSNGNTYLEWYLQKPGQSPKVLIYTVSNRFSGVPDRFSGSGSGTDFTLKISRVEAEDLGVYYCFQGSHLPLTFGGGTKL | 9.75
Ta1502 (antibody, V domains shown, also called Ta15 Series) VH: EVQLVESGGGLVQPKGSLKLSCAASGFAFNSFALNWVRQAPGKSLEWVVHIRSKTNNYATFYADSVKDRFTVSRDDSQNMVYLQMNNLKTEDTGIYYCVRRGPRDSWFGYWGQGTLVTVSA VL: DILMTQTPLSLPVSLGDQASISCRSSQNIVHSNGNTYLEWYLQKPGQSPKVLIYTVSNRFSGVPDRFSGSGSGTDFTLKISRVEAEDLGVYYCFQGSHLPLTFGGGTKL | 4.2
Ta1505 (antibody, V domains shown, also called Ta1505-2) VH: EVQLVESGGGLVQPKGSLKLSCAASGFAFNSFALNWVRQAPGKSLEWVVHIRSKTNNYATFYADSVKDRFTVSRDDSQSMVYLQMNNLKTEDTGIYYCVRRGPRDSWFGYWGQGTLVTVSA VL: DILMTQTPLSLPVSLGDQASISCRSSQNIVHSNGNTYLEWYLQKPGQSPKVLIYTVSNRFSGVPDRFSGSGSGTDFTLKISRVEAEDLGVYYCFQGSHLPLTFGGGTKL | 3.87

Problem: Which Kd value belongs to Ta1501 (antibody, V domains shown, also called Ta15 Series) VH: EVHLVESGGELVQPKGSLKLSCAASGFAFNSFAMNWVRQTPGKGLNWVAHIRSKTNNYATFYADSVKDRFTISRDDSQNMLYLQMNNLKTEDTGIYYCVRRGPRDSWFGYWGQGTLVTVSA VL: DVLMTQTPLSLPVSLGDHASISCRSSQNIVHSNGNTYLEWYLQKPGQSPKVLIYTVSNRFSGVPDRFSGSGSGTDFTLKISRVEAEDLGVYYCFQGSHLPLTFGGGTKL ?
Solution: 18.6

Problem: And then Ta1507 (antibody, V domains shown, also called Ta15 Series) VH: EIQLVESGGGLVQPKGSLKLSCAASGFAFSSFALNWVRQAPGKSLDWVAHIRSKANHYVTFYADSVKDRFTVSRDDSQSMVYLQMNNLKTEDTGIYYCVRRGPRDSWFGYWGQGTLVTVSA VL: DVLLTQTPLSLPVSLGDQASISCRSSQNIVHSNGNTYLEWYLQKPGQSPKVLIYTVSNRFSGVPDRFSGSGSGTDFTLKISRVEAEDLGVYYCFQGSHLPLTFGGGTKL , what is it?
Solution: 4.2

Problem: And then Ta1508 (antibody, V domains shown, also called Ta15 Series) VH: EVHLVESGGGLVQPKGSLKLSCAASGFAFNSFAMNWVRQAPGKGLDWIAHIRSKTNNYVTFYADSVKGRFSISRDDSQSMVYLQMNNLQTEDTGIYYCVRRGPRDSWFGYWGQGTLVTVSA VL: VVLMTQTPLSLPVSLGDQASISCRSSQNIVHSNGNTYLEWYLQKPGQSPKVLIYTVSNRFSGVPDRFSGSGSGTDFTLKISRVEAEDLGVYYCFQGSHLPLTFGGGTKL , what is it?
Solution: 6.76

Problem: And then Ta1509 (antibody, V domains shown, also called Ta15 Series) VH: EVQLVESGGGLVQPKGSLKLSCAASGFAFNSFAMNWVRQAPGKGLDWIAHIRSKSNNYVTFYADSVKDRFIISRDDSQSMIYLQMNNLKTEDSGIYYCVRRGPRDSWFGYWGQGTLVTVSA VL: DVLMTQSPLSLPVSLGDQASISCRSSQNIVHTNGNTYLEWYLQKPGQSPKVLIYTVSNRFSGVPDRFSGSGSGTDFTLKISRVEAEDLGVYYCFQGSHLPLTFGGGTKL , what is it?
Solution: 14.4
